This collection of values is drawn from patent US20220175942A1.

- Measured On: T1, CCL3_HUMAN (human, UniProt P10147 24-92)
- T1 chain: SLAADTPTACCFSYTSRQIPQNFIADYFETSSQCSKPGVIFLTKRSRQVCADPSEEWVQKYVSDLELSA
- Experiment: BLI
Property: Kd (nM)
Enter your answer as a number in nM; do not include the unit.

| Binder | Property | Measurement Unit | Numeric Value |
| --- | --- | --- | --- |
| P991_AMBCA (other) ENGEGTTQPDYDNSTDYYNYEDFKCTCPAPHLNNTNGTVMKPIGCYYTCNVTRCTAPDTYPCYNLTEHQAKNLTTSPTTLCAVGNCDHGICVPNGTKELCFKAPNLEE | Kd | nM | 1.08 |
| P985_AMBPA (other) DEESEELGASTDVDYEELDANCTCPAPALTSTRNNKHYPLGCIYNCSSYNCTIPDGTPCYVLTLGEVKEHLQIGSTVPNCTCGLCRNGTCVSNGTVEECFAVEEIEET | Kd | nM | 8.9 |
| P1180_AMBTR (other) EEPKDGYDYTEGCPFVVLGNGTHAKPAGCSHLCNGAPETLDDNMECYNVTEEVAKRMTPDIPYTCWLGWCSKGECKRDNRTEVCYRGSERE | Kd | nM | 1.07 |
| P1181_AMBMA (other) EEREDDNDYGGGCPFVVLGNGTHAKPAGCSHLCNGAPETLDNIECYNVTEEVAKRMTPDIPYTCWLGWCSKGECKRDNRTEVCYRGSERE | Kd | nM | 3.29 |
| P672_RHIPU (other) VCEVSEQEGVGEDNATEDEDYEDFFKPVTCYFANSTVGPLRPPNCTVVCTNNTAWWNDTKSDGGHCYSEYRPEKRTHSREIYNCTIGVCGNGTCIANHTYADCW | Kd | nM | 2.6 |
| P546_AMBCA (other) ENTQQEEEDYDYGTDTCPFPVLANKTNKAKFVGCHQKCNGGDQKLTDGTACYVVERKVWDRMTPMLWYSCPLGECKNGVCEDLRKKEECRKGNGEEK | Kd | nM | 14.5 |
| P974_AMBCA (other) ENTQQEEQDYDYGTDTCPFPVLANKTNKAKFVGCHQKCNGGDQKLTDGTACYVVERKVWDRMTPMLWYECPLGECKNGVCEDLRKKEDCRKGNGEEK | Kd | nM | 7.97 |
| P983_AMBCA (other) EDTGTEDDFDYGNTGCPFPVLGNYKSNMTKPVGCKNKCGSGYEVLNDTTPCYVIDQKVFNNMVPLRQYSKCPLGFCENGECKPNDQAEDCYKGREEQK | Kd | nM | 3.51 |
| P1182_AMBMA (other) EPKDDNDYGGGCPFVVLGNGTHAKPAGCSHLCNGAPETLDNIECYNVTEEVAKRMTPGIPYACWLGWCNKGECKRGNRTEVCYRGSEEE | Kd | nM | 9.46 |
| P467_RHIPU (other) AEKSLDSDSSGEDYELWTQGCPFLVAENRTGFGTTVSCQHNCNGAIEKVPEGEPCYTIGEDGLGRMKLNLPYNCSLGECSGGVCVPNGRSDVCFKRTWEENNKAMA | Kd | nM | 0.363 |

Proceed to the following item.
Reported Kd for P1243_AMBAM (other) RNHTEDNSTEYYDYEEARCACPARHLNNTNGTVLKLLGCHYFCNGTLCTAPDGYPCYNLTAQQVRTLTTYPNTSCAVGVCMKGTCVKNGTMEQCFKTP : what is it?
5.3
